What GI50 was measured for each of the following?
System: MDA-MB-231 breast
ASSAY_COMMENT: NCI tumour cell line growth inhibition, 48 h

Look up GI50 for this compound: "Cc1ccc(NC(=O)/C=C/c2ccccc2)c(C(N)=O)c1" 5.37 µM

Now the same for "COc1ccc(-c2cc(-c3ccccc3)nc(SCCCC(=O)NO)n2)cc1" 1.57 µM

Note, next up: "CC(C)(C)c1n[nH]c(=S)n(/N=C/c2ccc(F)c(Oc3ccccc3)c2)c1=O" 34.6 µM

Repeat with "C=CC(=O)Nc1cccc(C)c1Nc1cc(-c2cccnc2Cc2c(C)c(OC)cc(OC)c2C)ncn1" 5.65 µM

Cool, now "Cc1ccc(C2=NOC3=c4ccccc4=CSC3=C2c2ccc([N+](=O)[O-])cc2)cc1" 8.59 µM

* * *

Kindly supply the reported TGI values for the records listed here.
Test system: U251 CNS
ASSAY_COMMENT: NCI tumour cell line growth inhibition, 48 h
Give just the number in µM; leave the unit off.

May I ask what TGI has been recorded for CCC1CN2CCc3cc(OC)c(OC)cc3C2CC1CC1c2cc(OC)c(OC)cc2CCN1C(=O)C1CCCN1C(=O)OCc1ccccc1 (stereo not given) ? 28.3

Another compound: "O[C@H]1CO[C@H]2[C@@H]1OC[C@@H]2Oc1ccc(Nc2ccnc(Nc3ccc(O[C@H]4CO[C@H]5[C@@H]4OC[C@@H]5O)c(Cl)c3)n2)cc1Cl" 4.02

Now the same for "C/C=C/[P+](c1ccccc1)(c1ccccc1)c1ccccc1" 15.1

* * *

Tested on: SF-295 CNS
ASSAY_COMMENT: NCI tumour cell line growth inhibition, 48 h
Task for the reader: assign each of the following compounds its reported TGI.

Any idea what its TGI is? The compound is "CC1(C)CS(=O)(=O)CC(C)(C)C(=N/N)/C1=N\N" > 100 µM

Try this compound next: "CCCn1c(C)nc2c1C(=O)c1ccccc1C2=O" 41.6 µM

Same question for COc1ccc(NS(=O)CCCc2ccccc2)cc1 (centres undefined) please. > 100 µM

Could you do the same for "N#Cc1c(N)oc(-c2cccc([N+](=O)[O-])c2)c1C#N" , please? > 100 µM

Further, for COc1ccc(C2=C(Cl)c3cc(OC)c(OC)cc3C2Cl)cc1OC (centres undefined) ? 33.8 µM

Next: "O=[N+]([O-])/C=C1\COCc2cc3c(cc21)OCO3" > 100 µM

Now consider COc1ccc(NC2Oc3cc4c(cc3C(c3cccc(OC)c3OC)C2C)OCO4)cc1 (centres undefined) and answer again. 32.3 µM

And then "CCCCCC/C=C\CCCCCCCCCc1cccc(O)c1C(=O)O" , what is it? > 100 µM

Now the same for CC12CCC(C(=O)OC1=O)C(C)(C)O2 (centres undefined) > 100 µM

Thanks! And "COc1cc(C(=O)C/C(CCC(=O)Nc2ccccc2[N+](=O)[O-])=N\NC(=O)CC#N)ccc1O" ? > 100 µM

Continue with COc1nc(N)c(NC2OC(CO)C(O)C2O)c(=O)[nH]1 (centres undefined) > 100 µM

Note, next up: "CCCCCCCSc1nc2c(C(=O)OCC)ncn2c2ccccc12" > 100 µM

Moving on to "COc1ccc(OC)c(NC(=O)CCC/C(CC(=O)c2ccc(O)c(OC)c2)=N\NC(=O)C[N+](C)(C)C)c1" > 100 µM

Next: "CCOC(=O)c1oc2ccc(OC)c3c2c1CCC3" > 100 µM

Next up: CC(=O)C1=CSC2[C@H](NC(=O)Cc3ccccc3)C(=O)N2C1C(=O)OC(c1ccccc1)c1ccccc1 (some centres undefined) > 100 µM

Could you do the same for "CN1CCN(Cc2ccc(NC(=O)c3cncc(C#Cc4cnc(N)c5ccncc45)c3)cc2C(F)(F)F)CC1" , please? > 50 µM

Entry "C/C=C/[P+](c1ccccc1)(c1ccccc1)c1ccccc1" please 12 µM

What do you get for "CN(C)c1ccc(/C=C\c2cccc[n+]2C)cc1" ? > 100 µM

Again, but for Fc1ccc2nc3n(c2c1)C(c1c(F)cccc1F)SC3 (centres undefined) > 100 µM

Further, for "O=C(NN1C(=O)CSC12CCCCC2)c1[nH]c2ccc(F)cc2c1-c1ccccc1" ? 40 µM

Now consider "O=c1oc2ccccc2cc1/C=N/N1C(=S)N(c2ccccc2)C(=Nc2ccccc2)C1=Nc1ccccc1" and answer again. > 100 µM

One more compound: "COC(=O)[C@@H]1CN(C(=O)CCc2ccccc2)C(=O)N1C(=O)OCc1ccccc1" > 100 µM

Param item: O=C(c1ccccc1)C(CN1CCOCC1)c1ccccc1 (centres undefined) 10.4 µM

Can you check C=C1COC(/C=C(\C)CC/C=C(\C)CCl)C1 (centres undefined) next? > 100 µM

Again, but for "O=C1C(=O)c2c(nc3ccc(Cl)cn23)-c2ccccc21" 3.13 µM

Now give it for "O=c1cc(-c2ccccc2)[nH]c2cc(O)ccc12" too. > 100 µM

Also, "O[C@H]1CO[C@H]2[C@@H]1OC[C@@H]2Oc1ccc(Nc2ccnc(Nc3ccc(O[C@H]4CO[C@H]5[C@@H]4OC[C@@H]5O)c(Cl)c3)n2)cc1Cl" please. 3.22 µM

"COc1ccc(N=c2ssc3c(=S)ssc23)cc1" , same question. > 100 µM

What do you have for CSc1nc(N)c(NC2OC(CO)C(O)C2O)c(=O)[nH]1 (centres undefined) ? > 100 µM

* * *

Tested on: LXFL 529 NSCLC
ASSAY_COMMENT: NCI tumour cell line growth inhibition, 48 h
Provide the recorded TGI for the entries that follow.

// query TGI value for entry "CN(C)c1ccc(C=C2C(=O)OC(C)(C)OC2=O)cc1Br" > 100 µM

Subsequent entry: "CCOc1ccc2nc(NC(=O)c3c/c(=N\NC(=O)C[N+](C)(C)C)c4ccc(O)cc4o3)sc2c1" 4.45 µM

Now the compound "O=C1C(=O)N(c2ccc(Cl)c(Cl)c2)C(=O)C(=O)C1c1nc2ccccc2s1" > 100 µM

Please do the same for N#CC(C(=O)CCC(=O)Nc1cccc(Cl)c1)c1ccccc1 (centres undefined) as well. > 100 µM

* * *

Consider the following compounds; for each one, report its GI50.
System: MALME-3M melanoma
ASSAY_COMMENT: NCI tumour cell line growth inhibition, 48 h

Given CCN1CCC(CCOC)(CN2c3ccccc3Sc3ccc(Cl)cc32)C1 (stereo not drawn) , state its recorded GI50. 1.91 µM

And then "N#C/C(=C\c1c(-c2ccccc2)[nH]c2ccccc12)S(=O)(=O)c1ccccc1" , what is it? 6.77 µM

Quick one: "COc1ccc(-c2cc(-c3ccccc3)nc(SCCCC(=O)NO)n2)cc1" 1 µM

And "O=C1C(=O)c2c(nc3ccc(Cl)cn23)-c2ccccc21" ? 0.171 µM

Would you kindly repeat that for "N/C(=N\N=C\c1ccc(-c2ccccc2)cc1)N[N+](=O)[O-]" ? > 100 µM

Next compound up: "COc1cc2c(cc1OCCCCOc1cc3c(cc1OC)C(=O)N1CCC[C@H]1CN3)N=C[C@@H]1CCCN1C2=O" 1.47 µM

What do you have for O=C(C1CCCCC1)[C@@H]1[C@]2(C(=O)NC3CCCCC32)[C@@H]2CCCN2[C@@]12C(=O)NC1CCC(Cl)CC12 (stereo partly drawn) ? 132 µM

Moving on to "O=C1c2c(c3c4ccccc4[nH]c3c3ccc4ccccc4c23)C(=O)N1CCN1CCCCC1" 1.33 µM

For "CC(C)(C)c1n[nH]c(=S)n(/N=C/c2ccc(F)c(Oc3ccccc3)c2)c1=O" then? 28.5 µM

Also check "O=C(/C(=C/c1ccccc1)CN1CCCCC1)c1ccccc1" 1.16 µM

Then this compound: "c1ccc2c(c1)c(NCCCCN1CCCCC1)cc1c3ccccc3c(NCCCCN3CCCCC3)cc21" 12.9 µM

// next record "Cc1ccc(NC(=O)/C=C/c2ccccc2)c(C(N)=O)c1" 5.99 µM

Next entry: "Cc1c2cc[n+](CCN3CCCCC3)cc2c(C)c2c1[nH]c1ccc(O)cc12" 3.17 µM

* * *

Hi there, I'd appreciate the recorded TGI for every entry that follows.
Tested on: SK-OV-3 ovarian
ASSAY_COMMENT: NCI tumour cell line growth inhibition, 48 h

Endpoint output: TGI of "O=C(NNC1=NCCN1)c1ccco1" . Value? > 100 µM

Further, for COc1nc(N)c(NC2OC(CO)C(O)C2O)c(=O)[nH]1 (stereo unspecified) ? > 100 µM

Let us now turn to O=NC1C(Cl)C2CC1C1C(Br)C(Br)CC21 (stereo unspecified) > 100 µM

Would you kindly repeat that for "COc1ccc2[nH]c3c(c2c1)CCn1c-3nc2ccccc2c1=O" ? > 25 µM

Now give it for Cc1cc(=O)[nH]c(NN2C(Cl)C(=O)C2c2ccc(Cl)cc2)n1 (stereo unspecified) too. > 100 µM

Would you kindly repeat that for CSCC1CC(c2ccc(Cl)cc2)=NO1 (stereo unspecified) ? > 100 µM

Moving on to the next compound: "CN(CCO)c1nc2c(c(=O)[nH]1)CCC2" > 100 µM

Another: CCCCCCCCCCCCCCCCCC(=O)OCC(COC1OC(COP(=O)(O)O)C(O)C(O)C1O)OC(=O)CCCCCCCCCCCCCCCCC (stereo unspecified) 15.4 µM

Then "CS(=O)(=O)c1ccc(C(=O)Nc2ccc(Cl)c(-c3ccccn3)c2)c(Cl)c1" ? > 100 µM

Please answer likewise for "O=C(NCCCCCCCCNC(=O)c1cc(-c2ccccc2)nc2ccccc12)c1cc(-c2ccccc2)nc2ccccc12" > 100 µM

Likewise for "CCCN(C(=O)c1c(Cl)nnc(Cl)c1C(=O)c1cc(Cl)nnc1Cl)c1cc(Cl)nnc1Cl" ? > 100 µM

Can you check "COC(=O)[C@@H]1CN(C(=O)CCc2ccccc2)C(=O)N1C(=O)OCc1ccccc1" next? > 100 µM

"CCOC(=O)c1nc2ccc([N+](=O)[O-])cc2c2c1CCO2" , same question. > 100 µM

Now give it for "CN1CCN(Cc2ccc(NC(=O)c3cncc(C#Cc4cnc(N)c5ccncc45)c3)cc2C(F)(F)F)CC1" too. > 50 µM

What about this compound? "O=C(c1ccccc1)c1ccc(COc2ccc(C(c3c(O)c4ccccc4oc3=O)c3c(O)c4ccccc4oc3=O)cc2)cc1" 35.4 µM

Then O=C1C2CC=CCC2C(=O)N1n1c(-c2ccccc2)n[nH]c1=O (stereo unspecified) ? > 100 µM

Same read-out for CCC1C(c2cc(OC)c(OC)c(OC)c2)c2cc3c(cc2OC1N1CCCC1)OCO3 (stereo unspecified) ? 26.6 µM

Also check CC(C)CC(CC1=CCC2CC1C2(C)C)C1=C(O)C(C)(C)C(=O)C(C)(C)C1=O (stereo unspecified) 0.733 µM

Repeat for the following compound: "CN(/N=C(\C(=O)O)c1ccccc1)C1=NCCCN1" > 100 µM

Further, for "COc1cc2c(cc1OCCCCOc1cc3c(cc1OC)C(=O)N1CCC[C@H]1CN3)N=C[C@@H]1CCCN1C2=O" ? > 100 µM

Can you handle "COc1ccc(-c2c3c(nc4nc(SCCc5ccccc5)nc(N)c24)CCCC3)cc1OC" next? > 100 µM
